# TARGET OR SYSTEM: UniProt:Q60492
MEASURED QUANTITY: Ki (µM)
Supply the numeric figure in µM, leaving out any unit text.

> print(dat)
                                   compound  test.result
1  O=C1CN(CCCN2CCC(c3ccccc3)CC2)CC[S][Re]2(=[O])[S]CC[N]12 (centres unmarked)        0.553

Ask | Lab note: record Ki of O=C1CN(CCCN2CCC(O)(c3ccc(Cl)cc3)CC2)CC[S][Re]2(=[O])[S]CC[N]12 (centres unmarked) tested on UniProt:Q60492.
Reply | 2.96

###

// pKi lookup, one value per entry
# TARGET OR SYSTEM: σ2 receptor (Rattus norvegicus, UniProt Q5U3Y7)
# Sequence (Q5U3Y7 1-176): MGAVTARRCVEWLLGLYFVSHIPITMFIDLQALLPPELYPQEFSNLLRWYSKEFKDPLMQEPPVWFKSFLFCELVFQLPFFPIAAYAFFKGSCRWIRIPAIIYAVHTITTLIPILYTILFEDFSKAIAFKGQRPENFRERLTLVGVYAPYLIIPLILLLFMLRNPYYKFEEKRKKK
To interpret pKi, take it as minus log10 of a concentration measured in moles per litre.

Answered cases to consult:
> print(dat)
                                   molecule  measured.quantity  test.result
1  O=C(CN1CC[S][Re]2(=[O])[S]CC[N]2C(=O)C1)NC1CCN(Cc2ccccc2)CC1 (centres unmarked) [Re-22]                pKi         5.33
2  COc1ccccc1C1CCN(CCCN2CC[S][Re]3(=[O])[S]CC[N]3C(=O)C2)CC1 (centres unmarked) [Re-16]                pKi         6.47
3  O=C1CN(CCCN2CCC(O)(c3ccc(Cl)cc3)CC2)CC[S][Re]2(=[O])[S]CC[N]12 (centres unmarked) [Re-18]                pKi         6.28

Ask | Lab note: record pKi of O=C1CN(CCCN2CCC(c3ccccc3)CC2)CC[S][Re]2(=[O])[S]CC[N]12 (centres unmarked) [Re-21] tested on σ2 receptor (Rattus norvegicus, UniProt Q5U3Y7).
Reply | 7.07

Ask | Lab note: record pKi of O=C1CN(CCCN2CCC(Cc3ccccc3)CC2)CC[S][Re]2(=[O])[S]CC[N]12 (centres unmarked) [Re-15] tested on σ2 receptor (Rattus norvegicus, UniProt Q5U3Y7).
Reply | 6.87

###

Entries with reported Ki on σ1 receptor (Cavia porcellus, UniProt Q60492)
Sequence (Q60492 whole entry): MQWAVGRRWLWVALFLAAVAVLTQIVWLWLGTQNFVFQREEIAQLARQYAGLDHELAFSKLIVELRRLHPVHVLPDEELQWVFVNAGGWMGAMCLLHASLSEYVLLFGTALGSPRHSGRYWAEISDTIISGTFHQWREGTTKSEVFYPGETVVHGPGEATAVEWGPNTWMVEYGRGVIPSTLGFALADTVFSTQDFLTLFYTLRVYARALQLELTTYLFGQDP
Supply the numeric figure in µM, leaving out any unit text.

Answered cases to consult:
> print(dat)
                                   molecule  test.result
1  O=C1CN(CCCN2CCC(Cc3ccccc3)CC2)CC[S][Re]2(=[O])[S]CC[N]12 (stereo not drawn) [Re-15]        0.547
2  COc1ccccc1C1CCN(CCCN2CC[S][Re]3(=[O])[S]CC[N]3C(=O)C2)CC1 (stereo not drawn) [Re-16]         4.83

Please look at the following molecule next.
Ask | Lab note: record Ki of O=C(CN1CC[S][Re]2(=[O])[S]CC[N]2C(=O)C1)NC1CCN(Cc2ccccc2)CC1 (stereo not drawn) [Re-22] tested on σ1 receptor (Cavia porcellus, UniProt Q60492).
Reply | 5.51
